Tested on: L1210, CEM and HeLa cell lines
Test description: Cytostatic activity, average or summary over L1210, CEM and HeLa
Type: cell-based
Condition set: average of L1210, CEM and HeLa; read-out: Toxicity (IC50) Average
Quantity: pIC50
pIC50 is defined as minus the log10 of a concentration measured in mol/L.

// worked examples, pIC50 included
[[record]]
compound = "CN(C)c1cc(NC(=O)CNC(C)(C)C)c(O)c2c1C[C@H]1C[C@H]3[C@H](N(C)C)C(O)=C(C(N)=O)C(=O)[C@@]3(O)C(O)=C1C2=O [Tigecycline, reference compound]"
reported_result = 4.85

[[record]]
compound = "CN[C@H](CC(C)C)C(=O)N[C@H]1C(=O)N[C@@H](CC(N)=O)C(=O)N[C@H]2C(=O)N[C@H]3C(=O)N[C@H](C(=O)N[C@H](C(=O)NCC(=O)Nc4ccc5c(c4)Cc4ccccc4-5)c4cc(O)cc(O)c4-c4cc3ccc4O)[C@H](O)c3ccc(c(Cl)c3)Oc3cc2cc(c3O[C@@H]2O[C@H](CO)[C@@H](O)[C@H](O)[C@H]2O[C@H]2C[C@](C)(N)[C@H](O)[C@H](C)O2)Oc2ccc(cc2Cl)[C@H]1O"
reported_result = 3.76

[[record]]
compound = "CN[C@H](CC(C)C)C(=O)N[C@H]1C(=O)N[C@@H](CC(N)=O)C(=O)N[C@H]2C(=O)N[C@H]3C(=O)N[C@H](C(=O)N[C@H](C(=O)NCC(=O)Nc4ccc(N5CCOCC5)cc4)c4cc(O)cc(O)c4-c4cc3ccc4O)[C@H](O)c3ccc(c(Cl)c3)Oc3cc2cc(c3O[C@@H]2O[C@H](CO)[C@@H](O)[C@H](O)[C@H]2O[C@H]2C[C@](C)(N)[C@H](O)[C@H](C)O2)Oc2ccc(cc2Cl)[C@H]1O"
reported_result = 3.69


Proceed to the following item.
[Q] If you can, please state the reported pIC50 value of CNC(CC(C)C)C(=O)NC1C(=O)NC(CC(N)=O)C(=O)NC2C(=O)NC3C(=O)NC(C(=O)NC(C(=O)NCCCNC(=O)c4ccc5cc(NS(=O)(=O)c6ccc(C)cc6)ccc5c4)c4cc(O)cc(O)c4-c4cc3ccc4O)C(O)c3ccc(c(Cl)c3)Oc3cc2cc(c3OC2OC(CO)C(O)C(O)C2OC2CC(C)(N)C(O)C(C)O2)Oc2ccc(cc2Cl)C1O (stereo not drawn) .
[A] 3.73
